applied.conditions: in methanol, 318.15 K
property.label: solubility (mole fraction)

> print(dat)
   smiles.notation  reported.measurement
1      Nc1nnn[nH]1               0.00131

----------
applied.conditions: in methanol, 293.15 K
property.label: solubility (mole fraction)

> print(dat)
   smiles.notation  reported.measurement
1      Nc1nnn[nH]1              0.000764

----------
applied.conditions: in isopropanol, 288.15 K
property.label: solubility (mole fraction)

> print(dat)
   smiles.notation  reported.measurement
1      Nc1nnn[nH]1              0.000853

----------
applied.conditions: in DMF, 303.15 K
property.label: solubility (mole fraction)

> print(dat)
   smiles.notation              property.label  reported.measurement
1      Nc1nnn[nH]1  solubility (mole fraction)                0.0493
